Reported cytotoxicity at 10 µM values for a set of compounds
assay: Toxicity liver stage against HepG2, at 10uM; format: cell-based; parameters: test concentration 10 uM, cell line HepG2-A16-CD81EGFP; settings: human, HepG2-A16-CD81EGFP cells; read-out: INHIBITION
// note: answer is a bare numeric in %

COMPOUND | VALUE TYPE | OBSERVED RESULT
COCCCN1C(=O)CC[C@H]2CN(c3ccc(C(N)=O)cn3)CC[C@H]21 | cytotoxicity at 10 µM | 5.03
CN1Cc2ccccc2CC2(CCN(CCO)CC2)C1=O | cytotoxicity at 10 µM | -6.58
CC(C)CS(=O)(=O)CC(=O)NC(C)c1nnc2n1CCC2 (stereo unspecified) | cytotoxicity at 10 µM | -19.1
CC(C)c1nn(C)c(N(C)C)c1CNCc1cccnc1 | cytotoxicity at 10 µM | -4.6
CN(Cc1ccc(Cl)s1)C(=O)CN(C)C1CCc2ccccc21 (stereo unspecified) | cytotoxicity at 10 µM | 18.1
CN(CC1(CO)CCC1)C(=O)c1cc(COc2ccccc2F)[nH]n1 | cytotoxicity at 10 µM | 12.1
O=C(NC1CCN(C2CC2)CC1)c1cn(-c2ccc(Cl)cc2)nn1 | cytotoxicity at 10 µM | -2.87
CCCS(=O)(=O)N1C[C@@H]2C[C@H](C(=O)N3CCN(C)CC3)[C@H](C1)O2 | cytotoxicity at 10 µM | 1.47
CN1CCCCC1Cc1nc(Cc2cccc(F)c2)no1 (stereo unspecified) | cytotoxicity at 10 µM | -148
Cc1nn(C)c(C)c1CCC(=O)Nc1cn(C)c(=O)n(C)c1=O | cytotoxicity at 10 µM | 20.6

Consider CC1CCC(NS(=O)(=O)CC(=O)NC(C2CC2)C2CC2)CC1 (stereo unspecified) . Its measured cytotoxicity at 10 µM is -2.8

---

In this section, each of the compounds is paired with its reported cytotoxicity at 10 µM.
test: Toxicity liver stage against HepG2, at 10uM; assay type: cell-based; set-up: test concentration 10 uM, cell line HepG2-A16-CD81EGFP; conditions: human, HepG2-A16-CD81EGFP cells; read-out: INHIBITION
Numbers only here, please. The scale is %.

COMPOUND | cytotoxicity at 10 µM [%]
Cn1ccc(CN2CCC(CCc3ccc(O)cc3)CC2)cc1=O | 1.2
CN1CCC(N[C@@H]2CO[C@H](CNC(=O)C3CCCC3)[C@H]2O)CC1 | -4.63
Cc1ccccc1C(=O)N1CCOC2(CNCCOC2)C1 (configuration not stated) | -16.5

Lookup result for COc1cccc(-n2c(SCC(=O)O)nnc2-c2cn[nH]c2)c1 ; measured cytotoxicity at 10 µM: -6.76

response.value for CC(C)c1nc(C2CCCN2C(=O)c2cc(Cl)c[nH]2)no1 (configuration not stated) (field: cytotoxicity at 10 µM) = 0.585

Documented cytotoxicity at 10 µM of C[C@@]1(O)CCN(C2CCOCC2)C[C@H]1n1ccc(=O)[nH]c1=O : 4

Memo: CCc1ncnc2c1CCN(C(=O)c1cccn1C)CC2 , reported cytotoxicity at 10 µM: -73.5

Record CN(C)C(=O)Cc1ccccc1NCc1cc(C#N)ccc1F , field cytotoxicity at 10 µM: 48.1

---

Recorded cytotoxicity at 10 µM by entry
assay: Toxicity liver stage against HepG2, at 10uM; format: cell-based; set-up: test concentration 10 uM, cell line HepG2-A16-CD81EGFP; conditions: human, HepG2-A16-CD81EGFP cells; read-out: INHIBITION
Dear colleague, please send the value followed by its unit.

Check out these entries, answers already filled in.
COMPOUND | cytotoxicity at 10 µM
Cc1oncc1C(=O)N[C@@H]1CN(Cc2ccco2)C[C@@H]2CCCO[C@@H]21 | -109%
c1ccc2c(CC3CN(Cc4nccs4)CCO3)cccc2c1 (configuration not stated) | 1.31%
Cc1ccc(C)c(C(=O)N2CCN(C(=O)Cc3ccccn3)CC2)c1 | -15.1%

Documented cytotoxicity at 10 µM of CC(C)(C)CN1CCCC12Cc1ccccc1CNC2=O (configuration not stated) : 22.1%

cytotoxicity at 10 µM reading for O=C(NCC(O)c1ccc(F)c(F)c1)c1cccnc1O (configuration not stated) : -13.6%

Item: CC(C)NC(=O)C1CN(C(=O)c2cccs2)CC12CCOCC2 (configuration not stated) | cytotoxicity at 10 µM: -3.59%

---

test: Toxicity liver stage against HepG2, at 10uM; format: cell-based; design: test concentration 10 uM, cell line HepG2-A16-CD81EGFP; conditions: human, HepG2-A16-CD81EGFP cells; read-out: INHIBITION
cytotoxicity at 10 µM reference
Quick note: give the figure in %, leave out the unit.

Consider the reported cytotoxicity at 10 µM for these compounds:
COMPOUND | UNIT OF MEASURE | OBSERVED RESULT
COCCC1(C(=O)O)CCCN(C(=O)c2cnc3c(c2)CCCC3)C1 (centres undefined) | % | -44.5
COCCCN1CC2(CCC1=O)CCN(Cc1cc(C)no1)CC2 | % | 4.08
COCCN1CCC(c2nc3ccccc3[nH]2)CC1 | % | 0.575
CC(NCCn1cccn1)c1ccc(F)cc1F (centres undefined) | % | 1.99
Cc1ccc(C(=O)N2CCn3cc(CN(C)Cc4ccco4)nc3C2)o1 | % | 12.4

Lab book: cytotoxicity at 10 µM of Cn1nccc1C(=O)N1CCOC(Cc2cccnc2)C1 (centres undefined) noted as -7.95

Documented cytotoxicity at 10 µM of CCn1ccc2ccnc(CC3CN(C(=O)c4cnco4)C3)c21 : -6.61

---

The following molecules are listed with their measured cytotoxicity at 10 µM values.
assay: Toxicity liver stage against HepG2, at 10uM; type: cell-based; design: test concentration 10 uM, cell line HepG2-A16-CD81EGFP; conditions: human, HepG2-A16-CD81EGFP cells; read-out: INHIBITION
Please reply with the bare figure in % and do not write the unit itself.

MOLECULE | UNIT OF MEASURE | cytotoxicity at 10 µM
Cn1c(=O)cc(C(=O)NC(Cc2ccsc2)c2cccnc2)[nH]c1=O (stereo not drawn) | % | 0.913
CCn1ccnc1CN1CCOC(Cn2cccn2)C1 (stereo not drawn) | % | -14.7
Cc1ccc2[nH]c(CN(C)c3cc(CN)nc(C)n3)nc2c1 | % | 1.69
CCC(Nc1cccc(OC)c1)C(=O)N(CCOC)Cc1cnn(C)c1 (stereo not drawn) | % | -1.28
CCOCCC(=O)NC(c1noc(C)n1)c1ccccc1F (stereo not drawn) | % | 0.101
CN1CCO[C@@H]2CN(C(=O)c3ccc4[nH]ccc4c3)CC[C@@H]2C1 | % | -108

response.value for CC(C)N1C[C@@H]2OCC(=O)N(Cc3ccccc3)[C@@H]2C1 (field: cytotoxicity at 10 µM) = 10.5

Form: molecule = Cc1cc(CN2C[C@@H]3COC[C@]3(CNC(=O)N3CCCC3)C2)no1 ; cytotoxicity at 10 µM = -77.5

Note to self: cytotoxicity at 10 µM recorded for Cc1cc(C)n(CC2CN(Cc3nnsc3Cl)CCO2)n1 (stereo not drawn) was 1.46

Reported cytotoxicity at 10 µM for Cc1cnn(CC2CCCN2Cc2nnc(Cc3ccccc3)o2)c1 (stereo not drawn) was -11.7

Just so you know, measured cytotoxicity at 10 µM for CS(=O)(=O)NC1(CCc2ccc(NC(=O)C3CC3)nc2)CCCCC1 came out at 6.56

Short answer for O=C(Cc1cccnc1)N1C[C@H]2CC[C@@H](C1)N(Cc1ccccc1)C2=O : cytotoxicity at 10 µM was 7.93

---

experiment: Toxicity liver stage against HepG2, at 10uM; format: cell-based; set-up: test concentration 10 uM, cell line HepG2-A16-CD81EGFP; settings: human, HepG2-A16-CD81EGFP cells; read-out: INHIBITION
VALUE TYPE: cytotoxicity at 10 µM (%)
State just the number; it will be interpreted in %.

Below: 4 compounds and their reported cytotoxicity at 10 µM.
COMPOUND | cytotoxicity at 10 µM, %
O=C(c1cnoc1)N1CCC[C@]2(C[C@H](Oc3ncccc3F)CO2)C1 | -10.2
CCc1cc(CN(C)Cc2nc(-c3ccc(OC)cc3F)oc2C)on1 | -3.4
O=C(NC1CCC(C(=O)N2CCSCC2)CC1)N1CCC1 (centres undefined) | 12.7
Cc1cc(CNCC2CCCN(C(=O)OC(C)(C)C)C2)no1 (centres undefined) | 6.22

Record summary for Cc1cc(C2CCCCN2C(=O)CN2CC3(CCNCC3)OC2=O)no1 (centres undefined) : reported cytotoxicity at 10 µM = 8.69

Briefly, cytotoxicity at 10 µM measured for COCC1c2c(cnn2C)CCN1Cc1ccc(C)cc1 (centres undefined) : 45

Looking up O=C(NCc1cc(F)cc(Br)c1)C1(O)CCSCC1 , I found its cytotoxicity at 10 µM recorded as 3.6

// cytotoxicity at 10 µM value for O=S(=O)(CC1CCOCC1)NCc1ncc(-c2ccccc2)o1 : -12.6

Measured cytotoxicity at 10 µM, Cc1nccnc1N1CCC2(CCCN(C3CCOCC3)C2=O)C1 (centres undefined) : -8.8
